All values here come from patent US20240270821A1.

# STUDY_SYSTEM: hGIPR (Homo sapiens)
# Sequence (P48546 22-466): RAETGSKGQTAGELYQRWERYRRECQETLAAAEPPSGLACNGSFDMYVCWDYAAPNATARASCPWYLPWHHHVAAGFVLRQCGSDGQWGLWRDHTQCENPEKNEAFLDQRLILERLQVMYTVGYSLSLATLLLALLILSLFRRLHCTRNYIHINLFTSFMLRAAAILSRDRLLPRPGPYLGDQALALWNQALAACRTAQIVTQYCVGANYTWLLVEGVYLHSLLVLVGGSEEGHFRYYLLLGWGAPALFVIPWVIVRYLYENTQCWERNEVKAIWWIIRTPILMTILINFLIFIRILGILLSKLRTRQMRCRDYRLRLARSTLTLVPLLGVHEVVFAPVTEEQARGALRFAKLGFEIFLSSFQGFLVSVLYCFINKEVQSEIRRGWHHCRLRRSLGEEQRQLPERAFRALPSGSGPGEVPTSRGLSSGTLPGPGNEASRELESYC
# ASSAY: Functional cAMP activity in the presence of 1% HSA
# Assay type: cell-based
# CONDITION_SET: read-out: cAMP Rel EC50, hGIPR
pEC50: −log10 of the molar value. Starred links: 1 amine or outer side, 2 acyl side, 3 side chain; linkers in the order of their positions; H or OH if unused. Non-standard residues stand in square brackets, D forms with d. Groups on a side chain read outwards from the residue. *: point of attachment. C20 diacid = O=C(O)CCCCCCCCCCCCCCCCCCC(=O)*; C18 diacid = O=C(O)CCCCCCCCCCCCCCCCC(=O)*; αMePhe(2-F) = C[C@](N)(Cc1ccccc1F)C(=O)O; γGlu = O=C(O)[C@H](CCC(=O)[*:2])N[*:1]; αMe4Pal = C[C@](N)(Cc1ccncc1)C(=O)O; αMeY = C[C@](N)(Cc1ccc(O)cc1)C(=O)O; 4Pal = N[C@@H](Cc1ccncc1)C(=O)O; αMeL = CC(C)C[C@](C)(N)C(=O)O; αMeS = C[C@](N)(CO)C(=O)O; Orn = NCCC[C@H](N)C(=O)O; AEEA = NCCOCCOCC(=O)O; Aib = CC(C)(N)C(=O)O
MEASURED_ATTRIBUTE: pEC50

>  <SUBSTANCE>
H-Y[Aib]QGTFTSD[4Pal]SQ[αMeL]LDKK([AEEA-γGlu-C18 diacid])AQ[αMe4Pal]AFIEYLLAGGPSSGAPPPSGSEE-NH2 [Example 1037]

>  <RECORDED_RESULT>
7.86

$$$$
>  <SUBSTANCE>
H-Y[Aib]QGTFTSD[4Pal]SQ[αMeL]LD[Orn]K([AEEA-γGlu-C18 diacid])AQ[αMe4Pal]QFIE[αMeY]LIA[Aib]GPSSGEPPPSGSEE-NH2 [Example 1100]

>  <RECORDED_RESULT>
8.04

$$$$
>  <SUBSTANCE>
H-Y[Aib]QGT[αMePhe(2-F)]TSD[4Pal]SI[αMeL]LD[Orn]K([AEEA-γGlu-C18 diacid])AQ[αMe4Pal]EFI[dE][αMeY]LIEGGPSSGAPPPSGS-NH2 [Example 640]

>  <RECORDED_RESULT>
9.23

$$$$
>  <SUBSTANCE>
H-Y[Aib]QGTFTSDFS[Orn][αMeL]LDKK([AEEA-γGlu-C18 diacid])AQ[αMe4Pal]AFIEYLIE[Aib]GESSGAPPPSGS-NH2 [Example 229]

>  <RECORDED_RESULT>
7.56

$$$$
>  <SUBSTANCE>
H-Y[Aib]QGT[αMePhe(2-F)]TSD[4Pal]SILLDKK([γGlu-γGlu-C18 diacid])AQ[Aib]AFIEYLEEGGPSSGAPPPSGEEE-NH2 [Example 611]

>  <RECORDED_RESULT>
8.13

$$$$
>  <SUBSTANCE>
H-Y[Aib]QGTFTSD[4Pal]SQ[αMeL]LD[Orn]K([dE-γGlu-C18 diacid])AQ[αMe4Pal]AFIE[αMeY]LLAGGPSSGAPPPSGSEEE-NH2 [Example 1082]

>  <RECORDED_RESULT>
7.91

$$$$
>  <SUBSTANCE>
H-Y[Aib]QGTFTSDYSI[αMeL]LDKQAAK([AEEA-AEEA-γGlu-C20 diacid])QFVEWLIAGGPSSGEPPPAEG-NH2 [Example 332]

>  <RECORDED_RESULT>
7.11

$$$$
>  <SUBSTANCE>
H-Y[Aib]QGTFTSD[4Pal]SQ[αMeL]LD[Orn]K([γGlu-γGlu-C18 diacid])AQ[αMe4Pal]QFIEYLLAGGPSSGAPPPSGSEE-NH2 [Example 1006]

>  <RECORDED_RESULT>
7.93

$$$$
>  <SUBSTANCE>
H-Y[Aib]QGT[αMePhe(2-F)]TSD[4Pal][αMeS]I[αMeL]LD[Orn]K([γGlu-γGlu-C18 diacid])AQ[Aib][Orn]FI[dE]YLSEGGPSSGEPPPSGTE-NH2 [Example 530]

>  <RECORDED_RESULT>
7.20

$$$$
>  <SUBSTANCE>
H-Y[Aib]QGTFTSD[4Pal]SQ[αMeL]LD[Orn]K([γGlu-γGlu-C18 diacid])AQ[αMe4Pal]AFIE[αMeY]LIA[Aib]GPSSGAPPPSGSEE-NH2 [Example 1107]

>  <RECORDED_RESULT>
8.28

$$$$
>  <SUBSTANCE>
H-Y[Aib]QGTFTSD[4Pal]SR[αMeL]LDKK([AEEA-γGlu-C18 diacid])AQ[Aib]AFIE[αMeY]LLEGGPSSGAPPPSGS-NH2 [Example 909]

>  <RECORDED_RESULT>
7.69

$$$$
